details: Ebola virus entry reporter assay, green channel fluorescence
Potency and affinity values are given separately. The source made the active and inactive calls.
parameter_measured: outcome

Example compounds with recorded outcome:
CC[C@@H](CO)NCCN[C@@H](CC)CO
inactive
C[C@H]1[C@H](NC(=O)/C(=N/OC(C)(C)C(=O)O)c2csc(N)n2)C(=O)N1S(=O)(=O)O (stereo in doubt)
inactive
CC(C)NC[C@@H](O)COc1ccc(CC(N)=O)cc1
inactive
Nc1cc(-c2ccncc2)c[nH]c1=O
inactive
CCCCNc1ccc(C(=O)OCCOCCOCCOCCOCCOCCOCCOCCOCCOC)cc1
inactive
CN1CCN(C2=Nc3cc(Cl)ccc3Nc3ccccc32)CC1
inactive

Quick check: outcome of COc1cc2nc(N(C)CCCNC(=O)C3CCCO3)nc(N)c2cc1OC (stereo not drawn) ?
inactive

Quick check: outcome of Cc1ccc(C)c(OCCCC(C)(C)C(=O)O)c1 ?
inactive

====

target: Nucleoprotein (Lymphocytic choriomeningitis virus (strain Armstrong)) (UniProt P09992); assay: qHTS for Inhibitors of the Functional Ribonucleoprotein Complex (vRNP) of Lymphocytic Choriomeningitis Arenaviruses (LCMV): LCMV Primary Screen - GLuc reporter signal (AID 1347086); details: LCMV minigenome vRNP cell assay, Gaussia luciferase reporter; series mostly up to 57.5 µM; further: nearly all actives have a fitted effect of over 70% in size
Sequence (P09992 whole entry, looked up): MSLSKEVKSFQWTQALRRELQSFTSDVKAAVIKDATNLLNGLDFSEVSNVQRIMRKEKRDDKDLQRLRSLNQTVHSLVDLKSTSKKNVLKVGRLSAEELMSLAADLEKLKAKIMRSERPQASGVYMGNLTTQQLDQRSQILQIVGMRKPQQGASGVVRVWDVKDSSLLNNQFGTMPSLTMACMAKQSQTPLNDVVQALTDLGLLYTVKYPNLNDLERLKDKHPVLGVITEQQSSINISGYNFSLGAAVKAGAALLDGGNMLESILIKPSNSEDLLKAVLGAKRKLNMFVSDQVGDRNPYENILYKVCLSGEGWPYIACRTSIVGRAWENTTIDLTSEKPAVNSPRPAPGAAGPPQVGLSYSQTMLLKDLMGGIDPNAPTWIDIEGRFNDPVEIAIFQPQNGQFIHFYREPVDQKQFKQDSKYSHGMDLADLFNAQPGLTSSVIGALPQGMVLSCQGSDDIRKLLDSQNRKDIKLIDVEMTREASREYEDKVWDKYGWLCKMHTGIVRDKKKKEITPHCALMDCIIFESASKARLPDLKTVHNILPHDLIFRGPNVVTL
Inconclusive results are not listed. The source made the active and inactive calls. Calls come from the whole dose curve.
Hi! Could you answer with just one of these? true (1) (active), false (0) (inactive)

Any idea what this test logged for CN1CCN(C(c2ccccc2)c2ccccc2)CC1 ?
false (0)

Any idea what this test logged for CCOC(=O)[C@H](CCc1ccccc1)N[C@@H](C)C(=O)N1Cc2ccccc2C[C@H]1C(=O)O ?
false (0)

Any idea what this test logged for Oc1cc(Cl)ccc1Oc1ccc(Cl)cc1Cl ?
false (0)

Any idea what this test logged for Cc1ccc(C)c(OCCCC(C)(C)C(=O)O)c1 ?
false (0)

Any idea what this test logged for C[C@]12CC[C@H]3[C@@H](CCC4=CC(=O)CC[C@@H]43)[C@@H]1CC[C@@H]2OC(=O)CCc1ccccc1 ?
false (0)

Any idea what this test logged for NS(=O)(=O)c1cc2c(cc1Cl)NC=NS2(=O)=O ?
false (0)

Any idea what this test logged for CC(O)(CS(=O)(=O)c1ccc(F)cc1)C(=O)Nc1ccc(C#N)c(C(F)(F)F)c1 (stereo unspecified) ?
false (0)

Any idea what this test logged for N[C@@H](Cc1ccc(Oc2cc(I)c(O)c(I)c2)c(I)c1)C(=O)O ?
false (0)

Any idea what this test logged for CC(=O)Oc1ccccc1C(=O)Nc1ncc([N+](=O)[O-])s1 ?
false (0)

Any idea what this test logged for CCCc1nc2c(C)cc(-c3nc4ccccc4n3C)cc2n1Cc1ccc(-c2ccccc2C(=O)O)cc1 ?
false (0)

Any idea what this test logged for O=C(O)COCCN1CCN(C(c2ccccc2)c2ccc(Cl)cc2)CC1 (stereo unspecified) ?
false (0)

Any idea what this test logged for CCCc1cc(=O)[nH]c(=S)[nH]1 ?
false (0)

Any idea what this test logged for CCCCS(=O)(=O)N[C@@H](Cc1ccc(OCCCCC2CCNCC2)cc1)C(=O)O ?
false (0)

Any idea what this test logged for CC[C@]1(O)C[C@H]2CN(CCc3c([nH]c4ccccc34)[C@@](C(=O)OC)(c3cc4c(cc3OC)N(C=O)[C@H]3[C@@](O)(C(=O)OC)[C@H](OC(C)=O)[C@]5(CC)C=CCN6CC[C@]43[C@@H]65)C2)C1 ?
true (1)

Any idea what this test logged for Cc1[nH]cnc1CN1CCc2c(c3ccccc3n2C)C1=O ?
false (0)

Any idea what this test logged for CNCCCN1c2ccccc2CCc2ccccc21 ?
false (0)

Any idea what this test logged for C#CCOC(C(=O)OCCN(C)C)(c1ccccc1)c1ccccc1 ?
false (0)

Any idea what this test logged for CCCN(CCC)CCc1cccc2c1CC(=O)N2 ?
false (0)

Any idea what this test logged for Cc1ncc([N+](=O)[O-])n1CCO ?
false (0)

Any idea what this test logged for CCC(COC(=O)c1cc(OC)c(OC)c(OC)c1)(c1ccccc1)N(C)C (stereo unspecified) ?
false (0)

Any idea what this test logged for Cc1ccccc1C(OCCN(C)C)c1ccccc1 (stereo unspecified) ?
false (0)

Any idea what this test logged for CC(C)(O)c1ccccc1CC[C@@H](SCC1(CC(=O)O)CC1)c1cccc(/C=C/c2ccc3ccc(Cl)cc3n2)c1 ?
false (0)

Any idea what this test logged for COc1cc(C(=O)NCc2ccc(OCCN(C)C)cc2)cc(OC)c1OC ?
false (0)

Any idea what this test logged for COc1cc2nc(N3CCN(C(=O)C4CCCO4)CC3)nc(N)c2cc1OC (stereo unspecified) ?
false (0)

Any idea what this test logged for CC(C)NCC(O)c1ccccc1Cl (stereo unspecified) ?
false (0)

Any idea what this test logged for C[C@@H]1[C@@H](CC(C[C@H]2O[C@@H]3O[C@]4(C)CC[C@@H]5[C@H](C)CC[C@@H]([C@H]2C)[C@@]35OO4)C[S+](=O)([O-])c2ccc(COC(=O)N(C)C)cc2)O[C@@H]2O[C@]3(C)CC[C@H]4[C@H](C)CC[C@@H]1[C@@]24OO3 (stereo partly specified) ?
false (0)

Any idea what this test logged for O=P(O)(O)C(O)(Cc1cccnc1)P(=O)(O)O ?
false (0)

Any idea what this test logged for OCCN1CCN(CCCN2c3ccccc3Sc3ccc(Cl)cc32)CC1 ?
false (0)

Any idea what this test logged for OCCOc1ccccc1 ?
false (0)

Any idea what this test logged for CC1(C)S[C@@H]2[C@H](NC(=O)Cc3ccccc3)C(=O)N2[C@H]1C(=O)O (tested in a mixture with another compound) ?
false (0)

Any idea what this test logged for CCN(CC)C(=O)N[C@@H]1C=C2c3cccc4[nH]cc(c34)C[C@@H]2N(C)C1 ?
false (0)

Any idea what this test logged for CC1=C(C(=O)O)N2C(=O)[C@@H](NC(=O)[C@H](N)c3ccc(O)cc3)[C@H]2SC1 ?
false (0)

Any idea what this test logged for COC(c1ccccc1)(c1ccccc1)[C@H](Oc1nc(C)cc(C)n1)C(=O)O ?
false (0)

Any idea what this test logged for CN1C(=O)CC(C)(c2ccccc2)C1=O (stereo unspecified) ?
false (0)

Any idea what this test logged for CC(C)NCC(O)COc1cccc2[nH]ccc12 (stereo unspecified) ?
false (0)

Any idea what this test logged for CC1=C2C[C@@H]3[C@@H](CC=C4C[C@@H](O)CC[C@@]43C)[C@@H]2CC[C@]12O[C@H]1C[C@H](C)CN[C@H]1[C@H]2C ?
false (0)

Any idea what this test logged for CC(C(=O)O)c1cccc(C(=O)c2ccccc2)c1 (stereo unspecified) ?
false (0)

Any idea what this test logged for Cc1[nH]c(=O)c(C#N)cc1-c1ccncc1 ?
false (0)

Any idea what this test logged for O=C(O)C1(C(=O)O)CCC1.[NH2-].[NH2-].[Pt+2] ?
false (0)

Any idea what this test logged for Clc1ccc(COC(Cn2ccnc2)c2ccc(Cl)cc2Cl)cc1 (stereo unspecified) ?
false (0)

Any idea what this test logged for O=c1[nH]c2ccccc2n1CCCN1CCC(n2c(=O)[nH]c3cc(Cl)ccc32)CC1 ?
false (0)
